Numbers sourced from PubChem BioAssay (EPA / NIEHS).

Test Method Notes: BSK_SAg_SRB: Viability Assessment in the BioMAP Diversity Plus: SAg Assay (AID 2283096);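 note: cells read one day after compound addition; hits may be either gain or loss of signal compared with DMSO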
Test Settings: primary human HUVEC with PBMC
Active and inactive are the calls of the source. Rule for the calls: active = hit-call score of the fitted dose curve at least 0.9, where 1 is the maximum; inactive = score below 0.9.
Possible outcomes: active, inactive

| Compound String | Qualitative Label |
| --- | --- |
| O=C(Nc1ccc2[nH]ccc2c1)c1cc2cc(F)ccc2n1Cc1cccc(F)c1 | active |
| ClCC(Cl)CCl | inactive |
| CCCCCCCCc1ccc(O)cc1 | active |
| OCc1ccco1 | inactive |
| O=Cc1cccc(Oc2ccccc2)c1 | inactive |
| CCOP(=S)(OCC)SCSP(=S)(OCC)OCC | inactive |
| C[C@@H]1C[C@@H]([C@H](O)CC2CC(=O)NC(=O)C2)C(=O)[C@@H](C)C1 | active |
| CCC(C)(C)c1ccc(O)c(C(C)(C)CC)c1 | active |
| C[C@]12CCC(=O)C[C@@H]1CC[C@@H]1[C@@H]2CC[C@]2(C)[C@@H](O)CC[C@@H]12 | active |
| COP(=S)(OC)Oc1ccc(S(=O)(=O)N(C)C)cc1 | inactive |
| COC(=O)c1sccc1S(=O)(=O)NC(=O)Nc1nc(C)nc(OC)n1 | inactive |
| Nc1ccc(-c2ccc(N)c(Cl)c2)cc1Cl | active |

----------
Test Method Notes: CCTE_Harrill_HTTr_Apoptosis_MCF7: CCTE's 6-hour Apoptosis Assessment for the High-Throughput Transcriptomics (HTTr) Platform, in MCF-7 cells cultured in DMEM + 10% fetal bovine serum, Harrill Lab (AID 2284011)
Calls of active or inactive are those of the source. Rule for the calls: active = hit-call score of the fitted dose curve at least 0.9, where 1 is the maximum; inactive = score below 0.9.
Possible outcomes: 1.0 for active, 0.0 for inactive

| Compound | Qualitative Label |
| --- | --- |
| CC(C)(c1ccccc1)c1ccc(O)c(C(C)(C)c2ccccc2)c1 | 0.0 |
| C[C@@H]1C[C@@H]([C@H](O)CC2CC(=O)NC(=O)C2)C(=O)[C@@H](C)C1 | 0.0 |
| O=C1CCCN1 | 0.0 |
| O=[N+]([O-])c1ccc(O)c([N+](=O)[O-])c1 | 0.0 |
| COC(=O)c1sccc1S(=O)(=O)NC(=O)Nc1nc(C)nc(OC)n1 | 0.0 |
| Oc1cccc2cccnc12 | 0.0 |
| C[C@]12CC[C@H](O)CC1=CC[C@@H]1[C@@H]2CC[C@]2(C)C(=O)CC[C@@H]12 | 0.0 |
| CCOP(=S)(OCC)SCSP(=S)(OCC)OCC | 0.0 |
| CC(C)CCCCCCOC(=O)c1ccccc1C(=O)OCCCCCCC(C)C | 0.0 |
| COP(=O)(OC)O/C(=C\Cl)c1cc(Cl)c(Cl)cc1Cl | 0.0 |
| COC(=O)Cc1ccccc1 | 0.0 |
| CCCCCCCCC(=O)NCc1ccc(O)c(OC)c1 | 0.0 |
| C[C@@H](Oc1ccc(Cl)cc1Cl)C(=O)O | 0.0 |
| CCC1(c2ccc(N)cc2)CCC(=O)NC1=O (stereo not given) | 0.0 |
| O=C(O)C(F)(F)C(F)(F)C(F)(F)C(F)(F)C(F)(F)C(F)(F)F | 0.0 |
| BrCCBr | 0.0 |
| N#CCCO | 0.0 |
| ClCCBr | 0.0 |
| CCN1CCC2(CC1)COc1cc3c(cc12)N(C(=O)c1ccc(-c2ccc(-c4nnc(C)o4)cc2C)cc1)CC3 | 1.0 |
| O=C(OC1CCCCC1)c1ccccc1C(=O)OC1CCCCC1 | 0.0 |
| Cc1ccc2ccccc2c1C | 0.0 |
| O=[N+]([O-])c1ccc2c3c(cccc13)CC2 | 0.0 |
| COc1cc(-c2ccc(N)c(OC)c2)ccc1N | 0.0 |
| NC(=O)O | 0.0 |
| CC(C)c1cccc(C(C)C)c1O | 0.0 |
| ClCC(Cl)CCl | 0.0 |
| ClC1(Cl)C2(Cl)C3(Cl)C4(Cl)C(Cl)(Cl)C5(Cl)C3(Cl)C1(Cl)C5(Cl)C24Cl (stereo not given) | 0.0 |
| O=C(O)C(F)(F)C(F)(F)C(F)(F)C(F)(F)C(F)(F)C(F)(F)C(F)(F)C(F)(F)C(F)(F)C(F)(F)F | 0.0 |
| Cl/C=C/Cl | 0.0 |
| CCC[CH2][Sn]([CH2]CCC)([CH2]CCC)[O]C(=O)c1ccccc1 | 1.0 |
| ClC(Cl)=C(Cl)C(Cl)=C(Cl)Cl | 0.0 |
| CN(C)N=O | 0.0 |
| CCNc1nc(NC(C)(C)C)nc(SC)n1 | 0.0 |
| O=CC=O | 0.0 |
| CC12CC1(C)C(=O)N(c1cc(Cl)cc(Cl)c1)C2=O (stereo not given) | 0.0 |
| Oc1c(I)cc(I)cc1I | 0.0 |
| CC1(C)CCC(Cc2ccc(Cl)cc2)C1(O)Cn1cncn1 (stereo not given) | 0.0 |
| [O-][Cl+2]([O-])O | 0.0 |
| CC1CCCCC1NC(=O)Nc1ccccc1 (stereo not given) | 0.0 |
| CCOC(=O)Nc1cccc(OC(=O)Nc2ccccc2)c1 | 0.0 |
| Cc1cc(Cl)ccc1O[C@H](C)C(=O)O | 0.0 |
| CCCCOCCOC(C)=O | 0.0 |
| O=C(Cc1ccccc1)c1ccccc1 | 0.0 |
| COP(=O)(OC)OC | 0.0 |
| C[C@H]1CCCC(=O)CCC/C=C/c2cc(O)cc(O)c2C(=O)O1 | 0.0 |
| CC1(C)Cc2cccc(O)c2O1 | 0.0 |
| COc1ccccc1OC | 0.0 |
| COP(=S)(OC)Oc1ccc(Sc2ccc(OP(=S)(OC)OC)cc2)cc1 | 0.0 |
| O=S(=O)(c1ccc(Cl)cc1)c1ccc(Cl)cc1 | 0.0 |
| CCSC(C)CC1CC(=O)C(C(CC)=NOC/C=C/Cl)=C(O)C1 (stereo not given) | 0.0 |
| C=C(C)C#N | 0.0 |
| CN(C)P(=O)(N(C)C)N(C)C | 0.0 |
| Oc1ccc(-c2ccccc2)cc1 | 0.0 |
| O=C1C2(Cl)C3(Cl)C4(Cl)C(Cl)(Cl)C5(Cl)C3(Cl)C1(Cl)C5(Cl)C24Cl (stereo not given) | 0.0 |
| COc1ccc(C(O)(c2cncnc2)C2CC2)cc1 (stereo not given) | 0.0 |
